# method: recombinant UMI read abundance after kanamycin selection (control-corrected) (log10(CPM+1)); higher = more efficient recombination; extreme values may be limits of the assay; sequences stand for … in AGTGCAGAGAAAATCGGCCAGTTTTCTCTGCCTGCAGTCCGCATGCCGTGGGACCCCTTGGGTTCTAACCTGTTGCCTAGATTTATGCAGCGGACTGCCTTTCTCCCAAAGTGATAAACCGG…AGGTTGGTTTCACT; site = the 11-nt donor;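 note: IS621 bridge recombinase in Escherichia coli cells against a fixed T5 target plasmid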
Is recombinant UMI read abundance (log10) at least 0.01? Then true (1). If not, false (0).

Observe how each entry below is paired with its result.
>  <sequenceData>
CTTCTCTCATGGACCGGTTTTCCCGGTAATCCGTATTTGTA (site CTTCTCTCTTC)

>  <label>
true (1)

$$$$
>  <sequenceData>
GGTACAACATGGACCGGTTTTCCCGGTAATCCGTATTTGTA (site GGTCCAACTTA)

>  <label>
false (0)

$$$$

Incoming: For this sequence, is measured recombinant UMI read abundance (log10) 0.01 or higher? GCTACTGCATGGACCGGTTTTCCCGGTAATCCGTATTTGCC (site GCTACCGCTGG)
Outgoing: false (0)

Incoming: For this sequence, is measured recombinant UMI read abundance (log10) 0.01 or higher? CGCTGTCCATGGACCGGTTTTCCCGGTAATCCGTATTTGCA (site CGCTGTCCTTG)
Outgoing: true (1)

Incoming: For this sequence, is measured recombinant UMI read abundance (log10) 0.01 or higher? CGGAATCCATGGACCGGTTTTCCCGGTAATCCGTATTTGTT (site GGTAATCCTAA)
Outgoing: false (0)

Incoming: For this sequence, is measured recombinant UMI read abundance (log10) 0.01 or higher? CGCCGTACATGGACCGGTTTTCCCGGTAATCCGTATTTGCT (site CGACGTACTAG)
Outgoing: false (0)

Incoming: For this sequence, is measured recombinant UMI read abundance (log10) 0.01 or higher? CCAGTTGCATGGACCGGTTTTCCCGGTAATCCGTATTTGAT (site CCAGATGCTAT)
Outgoing: false (0)
